This collection of values is drawn from PubChem BioAssay.

Listed below: inhibition values for each entry.
assay: StAR promoter reporter inhibitors, counter-screen for LRH-1 inverse agonist project, cell-based, luminescence, high throughput (AID 651611); details: StAR promoter luciferase reporter counterscreen, at 3.6 µM, hits give high values
Reply numerically in %, unit not repeated.

State its inhibition for this molecule: "CN(c1ccc2nc3ccccc3c(=O)n2n1)C1CCCCC1"
59.8

###

assay: VP16 transactivation inhibitors, counter-screen for SRC1 inhibitor project, cell-based, luminescence, high throughput (AID 588824); conditions: cell-based VP16 transactivation luciferase luminescence; at 3.6 µM; hits give high values
Endpoint name: inhibition (%)
Express the result in % but write the number alone.

The cases that follow already have their inhibition on record.
Compound: O=[N+]([O-])c1ccc2ncnc(N3CCN(Cc4ccc5c(c4)OCO5)CC3)c2c1
inhibition [%]: 64.9

Compound: O=C(NCc1ccccc1)c1cccc(NC(=O)c2ccco2)c1
inhibition [%]: 48.9

Compound: O=C(N[C@H]1c2ccccc2C[C@H]1O)[C@H]1O[C@@H](n2ccc(=O)[nH]c2=O)[C@H](O)[C@@H]1O
inhibition [%]: -8.81

Identify the reported inhibition for the following entry. Cc1ccc(S(=O)(=O)CC2CSc3nc4ccccc4n32)cc1 (configuration not stated)
33.3

Indicate its recorded inhibition; the compound in question is CC1CCc2c(sc(NC(=O)c3cccs3)c2C(=O)O)C1 (configuration not stated)
54.1
